Origin of measurements: patent US20110250135A1

# assay.details: Biodistribution: organ distribution of F-18 signal in mice
# Format: in vivo, male NMRI mice
# run.conditions: thyroid, 2 min post i.v. injection
# Experimental: Biodistribution and excretion studies were performed in male NMRI mice (body weight app. 30g; 3 animals per time point). The animals were kept under normal laboratory conditions at a temperature of 22±2° C. and a dark/light rhythm of 12 hours. Food and water were provided ad libitium. […] At 2, 5, 30, 60, 240 min post intravenous injection via the tail vein of ca. 150 kBq in 100 μl of the test compound, urine and feces were quantitatively collected. […]
Each item that follows carries a reported Organ distribution of F-18 signal, thyroid.
experimental.endpoint: Organ distribution of F-18 signal, thyroid (% ID/g)

molecule: O=C(NCC(=O)N1CCN(c2ccc(OCc3ccccc3)cn2)CC1)c1ccnc([18F])c1 [Example 14f]
value.measured: 3.00

molecule: O=C(NCC(=O)N1CCN(c2ccc(OCc3ccccc3)cc2)CC1)c1cccc(OCC[18F])c1 [Example 3g]
value.measured: 3.87

molecule: O=C(NCC(=O)N1CCN(c2ccc(OCc3ccccc3)cc2)CC1)c1ccc([18F])nc1 [Example 10e]
value.measured: 2.51

molecule: O=C(NCC(=O)N1CCN(c2ccc(OCc3ccccc3)cc2)CC1)c1cccnc1[18F] [Example 12c]
value.measured: 3.59

molecule: O=C(NCC(=O)N1CCN(c2ccc(OCc3ccccc3)cc2)CC1)c1ccnc([18F])c1 [Example 11c]
value.measured: 3.11
